These measurements were taken from PubChem BioAssay AID652260.

# Test: SMARCA2 (BRM) function activators, confirmation, cell-based, luminescence, triplicate (AID 652260)
# Setup Conditions: MG213 cells, MMTV-luciferase with dexamethasone, overnight, at 9.1 µM, active compounds read high, DMSO wells 0%, reference activator 100%, MG213 cells expressing E1A, Rb sequestered
Among all 3,500 compounds or so, about 1,000 (29%) were called active. The list is a sample of the results.
Reported Endpoint: activation (%)

1) Cc1ccc(-c2nc3ccc(Br)cn3c2Cc2ccccc2C(F)(F)F)cc1
0.37
2) COc1ccc(NC(=O)c2sccc2SCC#N)cc1
0.37
3) Cn1cccc1/C=N/NC(=O)c1ccc(OC(F)(F)C(F)F)cc1
3.85
4) O=C(Nc1ccc2nccnc2c1)c1ccco1
5.96
5) O=C(Nc1cccc([N+](=O)[O-])c1)c1ccc2c(c1)OCO2
3.25
6) Cc1cccc(CSc2ccc(-c3cccs3)nn2)c1
7.87
7) COc1ccc(CC2c3cc(OC)c(OC)cc3CC[N+]2(C)CCC(=O)OCCCCCOC(=O)CC[N+]2(C)CCc3cc(OC)c(OC)cc3C2Cc2ccc(OC)c(OC)c2)cc1OC (stereo unspecified)
8.77
8) CN1CCN(CCCNC(=O)c2ccc(/C=C3\Oc4ccccc4N(Cc4ccc(Cl)cc4)C3=O)cc2)CC1
3.44
9) COc1ccc(C(=O)Nc2ccc3c(c2)OCO3)cc1OC
7.86
10) CCCCCCOC(=O)NCC(O)c1ccccc1 (stereo unspecified)
12.4
11) COc1ccc(N=C(C)c2sc3ccccc3c2O)cc1
9.34
12) O=[N+]([O-])c1ccc2c(c1)Nc1nc3ccccc3nc1N2
24.9
13) Cc1cc2oc3ccc(NCCC4CCCN4C)cc3c(=O)c2cc1C (stereo unspecified)
5.48
14) COc1ccc(C)cc1S(=O)(=O)N(CC(=O)Nc1cccc([N+](=O)[O-])c1)c1ccc(C)cc1
0.21
15) NS(=O)(=O)c1ccccc1NC(=O)c1c(O)c2ccccc2[nH]c1=O
12.1
16) COc1ccc(-c2cc(-c3ccc(N)cc3)nc(N)c2C#N)cc1OC
-1.93
17) CC(=O)c1sc(NC(=O)c2ccc(C)cc2)nc1C
6.35
18) Cc1ccc(C(=O)CSc2ccccc2C(=O)O)cc1
16.1
19) O=C(CCCc1ccccc1)NCc1ccccc1
8.8
20) O=C(Nc1ccc(NC(=O)c2cccs2)cn1)c1ccco1
2.8
21) O=C1/C(=C\c2ccc([N+](=O)[O-])cc2)CS(=O)(=O)C/C1=C/c1ccc([N+](=O)[O-])cc1
-15.7

---

# Test: SMARCA2 (BRM) function activators, confirmation, cell-based, luminescence, triplicate (AID 652260)
# Setup Conditions: MG213 cells, MMTV-luciferase with dexamethasone, overnight, at 9.1 µM, active compounds read high, DMSO wells 0%, reference activator 100%, MG213 cells expressing E1A, Rb sequestered
Screen size: about 3,500 compounds; about 1,000 (29%) were called active. Only a sample is shown.
Reported Endpoint: activation

1. CCNC(=S)N1CCN(c2ncccn2)CC1
-2.06% (inactive)
2. COC(=O)Cc1nnn2c1[C@H](C)[C@H](c1ccccc1[N+](=O)[O-])OCC2
0.13% (inactive)
3. Cc1ccnc(Nc2nc3ccccc3s2)n1
10% (active)
4. O=C(Nc1nnc(CCc2ccccc2)s1)C1CCCO1 (configuration not stated)
1.02% (inactive)
5. CC1(C(=O)NS(=O)(=O)C2CC2)CCCN(C(=O)CSc2ccccc2)C1 (configuration not stated)
1.21% (inactive)
6. Cc1cc(-n2cnc(-c3cn(C)nc3C)n2)no1
3.17% (inactive)
7. COc1ccc(C(CNC(=O)c2ccc(S(=O)(=O)Nc3ccccc3F)cc2)N(C)C)cc1 (configuration not stated)
0.35% (inactive)
8. CC(=O)c1sc(N/N=C\c2ccc(C)cc2)nc1C
6.84% (inactive)
9. Oc1cccc2ccc(/C=C/c3ccc(Br)s3)nc12
12.9% (active)
10. CCN(CC)C(=O)CSc1nnc(-c2cccc(OC)c2)o1
8.07% (active)
11. CC(C)CCNC(=O)c1ccc2c(Cl)c3c(nc2c1)CCC3
2.09% (inactive)
12. CN(C)S(=O)(=O)c1ccc2oc(SCC(=O)Nc3ccccc3F)nc2c1
7.95% (active)
